Data origin: the NIST ThermoML archive (doi:10.1016/j.jct.2012.09.017)

Assay explanation: activity coefficient (dimensionless); of the first substance listed, at infinite dilution; xn = mol fraction of the nth substance listed
Assay conditions: 373.15 K; 101 kPa; Liquid; Chromatography; x1 = 0
Quantity measured: activity coefficient
One number for each entry.

>>> data_value("C[N+](=O)[O-] [nitromethane] + CCCC[N+]1(C)CCCC1.O=C1O[B-]2(OC1=O)OC(=O)C(=O)O2")
0.441

Working through the 8 compounds below one at a time, give activity coefficient for each.
1. CC#N [acetonitrile] + CCCC[N+]1(C)CCCC1.O=C1O[B-]2(OC1=O)OC(=O)C(=O)O2
2. CCc1ccccc1 [ethylbenzene] + CCCC[N+]1(C)CCCC1.O=C1O[B-]2(OC1=O)OC(=O)C(=O)O2
3. CC(C)O [propan-2-ol] + CCCC[N+]1(C)CCCC1.O=C1O[B-]2(OC1=O)OC(=O)C(=O)O2
4. FC(F)(F)C(Cl)Br (stereo not given) [1-bromo-1-chloro-2,2,2-trifluoroethane] + CCCC[N+]1(C)CCCC1.O=C1O[B-]2(OC1=O)OC(=O)C(=O)O2
5. CC1CCCCC1 [methylcyclohexane] + CCCC[N+]1(C)CCCC1.O=C1O[B-]2(OC1=O)OC(=O)C(=O)O2
6. CCO [ethanol] + CCCC[N+]1(C)CCCC1.O=C1O[B-]2(OC1=O)OC(=O)C(=O)O2
7. C=CCCCCCC [oct-1-ene] + CCCC[N+]1(C)CCCC1.O=C1O[B-]2(OC1=O)OC(=O)C(=O)O2
8. c1ccsc1 [thiophene] + CCCC[N+]1(C)CCCC1.O=C1O[B-]2(OC1=O)OC(=O)C(=O)O2

Data returned:
1: 0.517; 2: 3.56; 3: 1.83; 4: 1.82; 5: 19.9; 6: 1.38; 7: 29.3; 8: 1.13

---

Assay explanation: activity coefficient (dimensionless); of the first substance listed, at infinite dilution; xn = mol fraction of the nth substance listed
Assay conditions: 318.15 K; 101 kPa; Liquid; Chromatography; x1 = 0
Please respond with reported activity coefficient for every item in the list.

Field: example entries. Status: answers known.
>>> data_value("CCc1ccccc1 [ethylbenzene] + CCCC[N+]1(C)CCCC1.N#C[B-](C#N)(C#N)C#N")
1.65
>>> data_value("CC#N [acetonitrile] + CCCC[N+]1(C)CCCC1.N#C[B-](C#N)(C#N)C#N")
0.425
>>> data_value("CCCCCCCC [octane] + CCCC[N+]1(C)CCCC1.N#C[B-](C#N)(C#N)C#N")
33.2

Quick note, activity coefficient for C=CCCCCCC [oct-1-ene] + CCCC[N+]1(C)CCCC1.N#C[B-](C#N)(C#N)C#N landed at 15.8

---

Assay explanation: activity coefficient (dimensionless); of the first substance listed, at infinite dilution; xn = mol fraction of the nth substance listed
Assay conditions: 353.15 K; 101 kPa; Liquid; Chromatography; x1 = 0
Quantity measured: activity coefficient
One number for each entry.

>>> data_value("ClC(Cl)Cl [trichloromethane] + CCCC[N+]1(C)CCCC1.O=C1O[B-]2(OC1=O)OC(=O)C(=O)O2")
1.06
>>> data_value("CO [methanol] + CCCC[N+]1(C)CCCC1.N#C[B-](C#N)(C#N)C#N")
0.831
>>> data_value("Cc1ccccc1 [toluene] + CCCC[N+]1(C)CCCC1.N#C[B-](C#N)(C#N)C#N")
1.22
>>> data_value("CCC(C)=O [butanone] + CCCC[N+]1(C)CCCC1.O=C1O[B-]2(OC1=O)OC(=O)C(=O)O2")
1.11
>>> data_value("FC(F)(F)C(Cl)Br (configuration not stated) [1-bromo-1-chloro-2,2,2-trifluoroethane] + CCCC[N+]1(C)CCCC1.N#C[B-](C#N)(C#N)C#N")
1.03

Working through the 3 compounds below one at a time, give activity coefficient for each.
1. CCC(C)=O [butanone] + CCCC[N+]1(C)CCCC1.N#C[B-](C#N)(C#N)C#N
2. COC(C)=O [methyl ethanoate] + CCCC[N+]1(C)CCCC1.N#C[B-](C#N)(C#N)C#N
3. CCCO [propan-1-ol] + CCCC[N+]1(C)CCCC1.O=C1O[B-]2(OC1=O)OC(=O)C(=O)O2

Data returned:
0.588
0.724
2.08

Working through the 3 compounds below one at a time, give activity coefficient for each.
1. ClCCl [dichloromethane] + CCCC[N+]1(C)CCCC1.O=C1O[B-]2(OC1=O)OC(=O)C(=O)O2
2. C1CCOC1 [tetrahydrofuran] + CCCC[N+]1(C)CCCC1.N#C[B-](C#N)(C#N)C#N
3. Cc1cccc(C)c1 [1,3-dimethylbenzene] + CCCC[N+]1(C)CCCC1.O=C1O[B-]2(OC1=O)OC(=O)C(=O)O2

Data returned:
0.774
0.683
3.73

Working through the 2 compounds below one at a time, give activity coefficient for each.
1. CCCO [propan-1-ol] + CCCC[N+]1(C)CCCC1.N#C[B-](C#N)(C#N)C#N
2. ClC(Cl)(Cl)Cl [tetrachloromethane] + CCCC[N+]1(C)CCCC1.O=C1O[B-]2(OC1=O)OC(=O)C(=O)O2

Data returned:
1.15
4.07

Working through the 2 compounds below one at a time, give activity coefficient for each.
1. CC(C)OC(C)C [diisopropyl ether] + CCCC[N+]1(C)CCCC1.O=C1O[B-]2(OC1=O)OC(=O)C(=O)O2
2. CC1CCCCC1 [methylcyclohexane] + CCCC[N+]1(C)CCCC1.N#C[B-](C#N)(C#N)C#N

Data returned:
16
10.1

Working through the 4 compounds below one at a time, give activity coefficient for each.
1. C1CCCCC1 [cyclohexane] + CCCC[N+]1(C)CCCC1.O=C1O[B-]2(OC1=O)OC(=O)C(=O)O2
2. CC1CCCCC1 [methylcyclohexane] + CCCC[N+]1(C)CCCC1.O=C1O[B-]2(OC1=O)OC(=O)C(=O)O2
3. C1CCOC1 [tetrahydrofuran] + CCCC[N+]1(C)CCCC1.O=C1O[B-]2(OC1=O)OC(=O)C(=O)O2
4. c1ccccc1 [benzene] + CCCC[N+]1(C)CCCC1.N#C[B-](C#N)(C#N)C#N

Data returned:
1: 16.2; 2: 24; 3: 1.15; 4: 0.891

Working through the 6 compounds below one at a time, give activity coefficient for each.
1. CC(C)=O [acetone] + CCCC[N+]1(C)CCCC1.N#C[B-](C#N)(C#N)C#N
2. CCCCCCCC [octane] + CCCC[N+]1(C)CCCC1.O=C1O[B-]2(OC1=O)OC(=O)C(=O)O2
3. C=CCCCCCC [oct-1-ene] + CCCC[N+]1(C)CCCC1.O=C1O[B-]2(OC1=O)OC(=O)C(=O)O2
4. C1CCCCC1 [cyclohexane] + CCCC[N+]1(C)CCCC1.N#C[B-](C#N)(C#N)C#N
5. CCOC(C)=O [ethyl acetate] + CCCC[N+]1(C)CCCC1.O=C1O[B-]2(OC1=O)OC(=O)C(=O)O2
6. CCCCCCCC [octane] + CCCC[N+]1(C)CCCC1.N#C[B-](C#N)(C#N)C#N

Data returned:
0.481
69.3
34.3
7.11
1.74
25.6

Working through the 2 compounds below one at a time, give activity coefficient for each.
1. COC(=O)OC [dimethyl carbonate] + CCCC[N+]1(C)CCCC1.N#C[B-](C#N)(C#N)C#N
2. C[N+](=O)[O-] [nitromethane] + CCCC[N+]1(C)CCCC1.O=C1O[B-]2(OC1=O)OC(=O)C(=O)O2

Data returned:
1: 0.57; 2: 0.43

---

Assay explanation: activity coefficient (dimensionless); of the first substance listed, at infinite dilution; xn = mol fraction of the nth substance listed
Assay conditions: 353.15 K; 101 kPa; Liquid; Chromatography; x1 = 0
Please respond with reported activity coefficient for every item in the list.

Field: example entries. Status: answers known.
>>> data_value("ClC(Cl)(Cl)Cl [tetrachloromethane] + CCCC[N+]1(C)CCCC1.N#C[B-](C#N)(C#N)C#N")
2.47
>>> data_value("COC(C)(C)C [2-methoxy-2-methylpropane] + CCCC[N+]1(C)CCCC1.O=C1O[B-]2(OC1=O)OC(=O)C(=O)O2")
5.87

Working through the 2 compounds below one at a time, give activity coefficient for each.
1. CC(C)O [propan-2-ol] + CCCC[N+]1(C)CCCC1.N#C[B-](C#N)(C#N)C#N
2. ClCCl [dichloromethane] + CCCC[N+]1(C)CCCC1.N#C[B-](C#N)(C#N)C#N

Data returned:
[1.16, 0.59]

---

Assay explanation: activity coefficient (dimensionless); of the first substance listed, at infinite dilution; xn = mol fraction of the nth substance listed
Assay conditions: 363.15 K; 101 kPa; Liquid; Chromatography; x1 = 0
Quantity measured: activity coefficient
One number for each entry.

>>> data_value("CC#N [acetonitrile] + CCCC[N+]1(C)CCCC1.O=C1O[B-]2(OC1=O)OC(=O)C(=O)O2")
0.516
>>> data_value("CC(C)O [propan-2-ol] + CCCC[N+]1(C)CCCC1.O=C1O[B-]2(OC1=O)OC(=O)C(=O)O2")
1.98
>>> data_value("CC(C)=O [acetone] + CCCC[N+]1(C)CCCC1.O=C1O[B-]2(OC1=O)OC(=O)C(=O)O2")
0.778
>>> data_value("CCCO [propan-1-ol] + CCCC[N+]1(C)CCCC1.O=C1O[B-]2(OC1=O)OC(=O)C(=O)O2")
1.9

Pending compound:
Quick note, activity coefficient for Cc1ccccc1 [toluene] + CCCC[N+]1(C)CCCC1.O=C1O[B-]2(OC1=O)OC(=O)C(=O)O2 landed at 2.43
